Origin of the recorded values: PubChem BioAssay (NCI)

system: RXF 393 renal; test: NCI tumour cell line growth inhibition, 48 h; in the data active means GI50 below about 0.43 µM; inactive means the rest
Possible outcomes: active, inactive

MOLECULE	TARGET_OF_ASSAY	ASSIGNED_CLASS
O=C(/C=C/c1ccc2c(c1)OCO2)c1ccccc1	RXF 393 renal	inactive
COC1(OC)C[C@H](C)[C@@]23O[C@]24c2cc(O)c5c(c2N[C@H]3C#C/C=C\C#C[C@]14O)C(=O)c1ccccc1C5=O	RXF 393 renal	active
CC(=O)[CH-]C(C)=O.CC(=O)[CH-]C(C)=O.CC(=O)[CH-]C(C)=O.[Cl-].[Hf+4]	RXF 393 renal	inactive
C[C@@H](Oc1cc(-c2cnn(C3CC4(CCNCC4)C3)c2)cnc1N)c1c(F)ccc(Cl)c1Cl	RXF 393 renal	inactive
CC1(C)OC(=O)C=C(O)O1.CC1(C)OC(=O)C=C(O)O1.CCO.Oc1ccc2c(c1)CCC2.[Ti]	RXF 393 renal	inactive
Cc1cc(Nc2nc(N3CCOCC3)nc3ccccc23)n[nH]1	RXF 393 renal	inactive
CCSc1nc(=S)[nH]c2[nH]ncc12	RXF 393 renal	inactive
COc1cc(-c2ccc(-[n+]3nc(-c4ccc([N+](=O)[O-])cc4)nn3-c3ccc([N+](=O)[O-])cc3)c(OC)c2)ccc1-[n+]1nc(-c2ccc([N+](=O)[O-])cc2)nn1-c1ccc([N+](=O)[O-])cc1	RXF 393 renal	inactive
CC(=O)O[C@H]1C(=O)[C@@]2(C)[C@H]([C@H](OC(=O)c3ccccc3)[C@]3(O)C[C@H](OC(=O)[C@H](OC(=O)CCC(=O)OC4CCC(S/N=C(N)/N=C(\N)N(C)C)CC4)[C@@H](NC(=O)c4ccccc4)c4ccccc4)C(C)=C1C3(C)C)[C@]1(OC(C)=O)CO[C@@H]1C[C@@H]2O (stereo partly specified)	RXF 393 renal	active
CCCCCCCCO/N=C\c1c2c(O)c3c(O)c(C)c4c(c3c1O)C(=O)C(C)(O/C=C\C(OC)C(C)C(OC(C)=O)C(C)C(O)C(C)C(O)C(C)/C=C\C=C(\C)C(=O)N2)O4 (stereo unspecified)	RXF 393 renal	inactive
C=C1C(=O)O[C@H]2[C@H]1CC/C(COC(=O)N[C@@H](Cc1c[nH]c3ccccc13)C(=O)OC)=C\CC[C@@]1(C)O[C@@H]21	RXF 393 renal	inactive
C[C@]12CC[C@H]3[C@@H](CC=C4C[C@@H](O)CC[C@@]43C)[C@@H]1C/C(=C\c1cccc(OCCCn3ccnc3)c1)[C@@H]2O	RXF 393 renal	inactive
O=C(/C=C/C12c3ccccc3C(c3ccccc31)C1C(=O)NC(=O)C12)c1ccco1 (stereo unspecified)	RXF 393 renal	inactive
CCC[CH2][Sn]([CH2]CCC)([O]C(=O)c1cccc(F)c1F)[O][Sn]([CH2]CCC)([CH2]CCC)[O]C(=O)c1cccc(F)c1F	RXF 393 renal	active
CCCN1C(=O)/C(=C/c2ccc(O)cc2)SC1=Nc1ccccc1	RXF 393 renal	inactive
COc1cc(C(=O)O)ccc1NC(=O)[C@@H]1N[C@@H](CC(C)(C)C)[C@](C#N)(c2ccc(Cl)cc2F)[C@H]1c1cccc(Cl)c1F	RXF 393 renal	inactive

###

system: A549 NSCLC; test: NCI tumour cell line growth inhibition, 48 h
PROPERTY_MEASURED: TGI (µM)

STRUCTURE_AS_SMILES	UNIT_TEXT	CENSORING_OPERATOR	MEASURED_RESULT
N#C/C(=C\c1ccc(Br)cc1)n1nnc2cc(F)c(F)cc21	µM	=	5.62
NC(=S)Nc1nnc(-c2ccc(-c3nnc(NC(N)=S)o3)cc2)o1	µM	>	100
CCN(CC)/C(=C\Cl)Nc1ccccn1	µM	>	100
N#Cc1c(SCc2ccccc2)nc2[nH]c(=S)[nH]c(=S)c2c1-c1ccco1	µM	>	100
COc1cc(C(=O)O)ccc1NC(=O)[C@@H]1N[C@@H](CC(C)(C)C)[C@](C#N)(c2ccc(Cl)cc2F)[C@H]1c1cccc(Cl)c1F	µM	=	8.21
